Measured Emax (%) accompanies every entry in the list below.
Biological target: human mGluR5a receptor (Homo sapiens)
Construct: cDNA subcloned into pcDNA3.1(-)
Sequence (P41594 21-1180 isoform P41594-2 limits assumed): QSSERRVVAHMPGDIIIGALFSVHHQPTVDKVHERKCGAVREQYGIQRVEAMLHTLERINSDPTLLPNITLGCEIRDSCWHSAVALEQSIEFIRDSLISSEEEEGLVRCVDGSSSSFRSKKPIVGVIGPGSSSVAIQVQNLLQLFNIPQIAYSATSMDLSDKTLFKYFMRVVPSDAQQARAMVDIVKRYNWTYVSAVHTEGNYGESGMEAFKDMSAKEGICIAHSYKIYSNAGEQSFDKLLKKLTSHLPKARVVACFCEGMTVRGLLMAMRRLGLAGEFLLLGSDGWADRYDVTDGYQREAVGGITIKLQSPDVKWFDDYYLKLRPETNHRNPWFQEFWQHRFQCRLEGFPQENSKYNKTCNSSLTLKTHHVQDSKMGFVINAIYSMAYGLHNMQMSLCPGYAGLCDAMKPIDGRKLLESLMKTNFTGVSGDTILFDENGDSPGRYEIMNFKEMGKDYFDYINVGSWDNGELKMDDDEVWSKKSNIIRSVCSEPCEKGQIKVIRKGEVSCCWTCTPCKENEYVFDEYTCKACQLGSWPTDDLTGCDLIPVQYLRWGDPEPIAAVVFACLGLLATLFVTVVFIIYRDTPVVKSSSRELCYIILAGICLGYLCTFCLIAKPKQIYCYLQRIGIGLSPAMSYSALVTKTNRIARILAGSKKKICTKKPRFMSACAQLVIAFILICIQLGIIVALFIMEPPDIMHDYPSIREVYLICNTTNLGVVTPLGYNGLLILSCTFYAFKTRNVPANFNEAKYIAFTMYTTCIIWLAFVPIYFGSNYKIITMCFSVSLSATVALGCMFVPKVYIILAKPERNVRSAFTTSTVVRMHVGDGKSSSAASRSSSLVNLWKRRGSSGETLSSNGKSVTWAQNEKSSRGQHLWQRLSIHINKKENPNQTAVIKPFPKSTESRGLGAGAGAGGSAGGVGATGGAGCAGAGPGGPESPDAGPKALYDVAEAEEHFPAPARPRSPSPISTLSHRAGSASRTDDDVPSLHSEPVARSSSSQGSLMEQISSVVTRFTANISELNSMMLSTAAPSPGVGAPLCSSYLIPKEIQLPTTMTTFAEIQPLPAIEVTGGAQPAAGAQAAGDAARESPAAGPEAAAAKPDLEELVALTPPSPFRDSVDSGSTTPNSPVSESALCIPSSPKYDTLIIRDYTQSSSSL
Test: Cell-based functional Ca2+ mobilization assay (FDSS), potentiation of glutamate EC20 response
Details: maximum % effect in concentration-response curve, as percent of response to maximally effective glutamate
Method: Human embryonic kidney (HEK) cells transfected with rat mGluR5 were plated in clear bottom assay plates for assay in a Functional Drug Screening System (FDSS). […] After establishment of a fluorescence baseline for twelve seconds, the compounds of the present invention were added to the cells, and the response in cells was measured. […] Five minutes later, an mGluR5 agonist (e.g., glutamate, 3,5-dihydroxyphenylglycine, or quisqualate) was added to the cells, and the response of the cells was measured. […]

| Compound | Emax (%) |
| --- | --- |
| CC(C)CN1CCn2nc(COc3ccccc3)cc2C1=O | 75 |
| Cc1nc(N2CCn3nc(COc4ccccn4)cc3C2=O)ccc1F | 55 |
| Cc1nc2cc(N3CC(C)n4nc(COc5ccccc5)cc4C3=O)ccc2s1 (single isomer, unassigned) | 60 |
| O=C1c2cc(COc3ccncn3)nn2CCN1c1ccc(F)cc1 | 60 |
| Cn1cc2ccc(N3CCn4nc(COc5ccccc5)cc4C3=O)cc2n1 | 62 |
| O=C1c2cc(COc3ccccc3)nn2CC(CF)N1c1ccc(F)cc1 (stereo not shown) [Example 269] | 58 |
| CC1Cn2nc(COc3ccccc3)cc2C(=O)N1c1ccc(F)cc1 (racemic) [Example 18] | 70 |
| Cc1ccc2ccc(N3CCn4nc(COc5ccccc5)cc4C3=O)cc2n1 | 68 |
| O=C1c2cc(COc3ccccn3)nn2CCN1c1ccc(F)cn1 | 64 |
| Cc1nc2cc(N3CCn4nc(COc5ccccc5)cc4C3=O)ccc2s1 | 60 |
| CNc1ccnc(N2CCn3nc(COc4ccccc4)cc3C2=O)n1 | 63 |
| CN(C)c1nc(N2CCn3nc(COc4ccccc4)cc3C2=O)ccc1F | 71 |
| CC1CN(c2ccc(F)cn2)C(=O)c2cc(COc3ccccc3)nn21 (single isomer, unassigned) | 68 |
| O=C1c2cc(COc3ccc(F)cc3)nn2CCN1CC1CC1 | 64 |
| COc1ccc(N2CCn3nc(COc4ccccc4)cc3C2=O)cc1F | 58 |
| CN(C)c1ccc(F)c(N2CCn3nc(COc4ccccn4)cc3C2=O)n1 | 70 |
| COc1cncc(N2CCn3nc(COc4ccccc4)cc3C2=O)n1 | 69 |
| O=C1c2cc(COc3ccccc3)nn2CCN1c1cccc(Cl)n1 | 73 |
| CC1Cn2nc(COc3cccc(F)c3)cc2C(=O)N1c1ccc(F)cc1 (stereo not shown) | 78 |
| N#Cc1cccc(N2CCn3nc(COc4ccccc4)cc3C2=O)n1 | 54 |
| COc1cncnc1N1CCn2nc(COc3ccccc3)cc2C1=O | 67 |
| COc1ccc(F)c(N2CCn3nc(COc4ccccn4)cc3C2=O)n1 | 69 |
| COc1cc(OC)nc(N2CCn3nc(COc4ccccc4)cc3C2=O)n1 | 63 |
| CN(C)c1cccc(N2CCn3nc(COc4ccccn4)cc3C2=O)n1 | 74 |
| COCC1Cn2nc(COc3ccccc3)cc2C(=O)N1c1ccc(F)cc1 (stereo not shown) | 70 |
